Data origin: the supplement of paper PMC6555819

Tested on: FXR:RXRa (NR concentration 270 nM, RXRa partner concentration 90 nM)
Test: PBM binding z-score (relative to random genomic background probes); higher = stronger binding; sequences stand for … in GC…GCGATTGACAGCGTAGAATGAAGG
Some sequences, each annotated with its measured PBM binding z-score.
Measured attribute: PBM binding z-score

>  <Input sequence>
CAAACTAGGTCAAGGTCAAAGTGGGTTTGTGCCA

>  <System tested>
FXR:RXRa (NR concentration 270 nM, RXRa partner concentration 90 nM)

>  <Result value>
6.71

$$$$
>  <Input sequence>
CCTAGTTTGTCAAGGTCACACACGCTATAGGTAC

>  <System tested>
FXR:RXRa (NR concentration 270 nM, RXRa partner concentration 90 nM)

>  <Result value>
4.49

$$$$
>  <Input sequence>
GATACAGGGTCAGCTAGAGTCCAGAGTATGGAAA

>  <System tested>
FXR:RXRa (NR concentration 270 nM, RXRa partner concentration 90 nM)

>  <Result value>
4.63

$$$$
>  <Input sequence>
CCTAGCAGGCCAATGTGGGTCACTCAAGGCTTGA

>  <System tested>
FXR:RXRa (NR concentration 270 nM, RXRa partner concentration 90 nM)

>  <Result value>
0.735

$$$$
>  <Input sequence>
GCGACTGGCGCAAAGCAGGTTACCATAAGGTTGG

>  <System tested>
FXR:RXRa (NR concentration 270 nM, RXRa partner concentration 90 nM)

>  <Result value>
-0.457

$$$$
>  <Input sequence>
TCTAGTAGTTGAAGGGCAACCGACGAGTCCGTTT

>  <System tested>
FXR:RXRa (NR concentration 270 nM, RXRa partner concentration 90 nM)

>  <Result value>
0.63

$$$$

---

Test system: LXRb homodimer (NR concentration 270 nM)
Test: PBM binding z-score (relative to random genomic background probes); higher = stronger binding; sequences stand for … in GC…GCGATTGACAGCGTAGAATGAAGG
Listed sequences paired with reported PBM binding z-score
Measured attribute: PBM binding z-score

>  <Input sequence>
ATCGAAACGTCGAGGTGAGTATAGAGAAAGGGAA

>  <System tested>
LXRb homodimer (NR concentration 270 nM)

>  <Measured attribute>
PBM binding z-score

>  <Result value>
-0.471

$$$$
>  <Input sequence>
TAGCCTAGGTCATGGGCCAGTACACCACGCGAAC

>  <System tested>
LXRb homodimer (NR concentration 270 nM)

>  <Measured attribute>
PBM binding z-score

>  <Result value>
0.439

$$$$
>  <Input sequence>
ATCGAAAGCTCGTGAGGTGAGTATACAGAAAGGC

>  <System tested>
LXRb homodimer (NR concentration 270 nM)

>  <Measured attribute>
PBM binding z-score

>  <Result value>
-0.682

$$$$
>  <Input sequence>
ACTACTTGGTCAGCTGAGGTCACACACAATTCGG

>  <System tested>
LXRb homodimer (NR concentration 270 nM)

>  <Measured attribute>
PBM binding z-score

>  <Result value>
1.27

$$$$
>  <Input sequence>
CGTCAAAGTTCAAGGTAACGTAGCAGAAAGCAGC

>  <System tested>
LXRb homodimer (NR concentration 270 nM)

>  <Measured attribute>
PBM binding z-score

>  <Result value>
0.96

$$$$
>  <Input sequence>
TCTAGCAGGCCAGAGGGTTACTCAAGAGGTACGG

>  <System tested>
LXRb homodimer (NR concentration 270 nM)

>  <Measured attribute>
PBM binding z-score

>  <Result value>
-1.4

$$$$
>  <Input sequence>
CTACCAAGGTGAACAAGGTCGCTGATTACTATTC

>  <System tested>
LXRb homodimer (NR concentration 270 nM)

>  <Measured attribute>
PBM binding z-score

>  <Result value>
-0.68

$$$$
>  <Input sequence>
CAAACTAGGTCAAGGCCAAAGTCGGTTTGTGCCA

>  <System tested>
LXRb homodimer (NR concentration 270 nM)

>  <Measured attribute>
PBM binding z-score

>  <Result value>
-0.0886

$$$$
>  <Input sequence>
ACAGACAGGTGATGAAGCTAACTCAGGCTATCAT

>  <System tested>
LXRb homodimer (NR concentration 270 nM)

>  <Measured attribute>
PBM binding z-score

>  <Result value>
-0.446

$$$$
>  <Input sequence>
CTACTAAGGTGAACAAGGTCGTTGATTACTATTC

>  <System tested>
LXRb homodimer (NR concentration 270 nM)

>  <Measured attribute>
PBM binding z-score

>  <Result value>
-0.227

$$$$
>  <Input sequence>
CAAACTAGGTCAAGAGGTCAAAGTACGCTTCCCG

>  <System tested>
LXRb homodimer (NR concentration 270 nM)

>  <Measured attribute>
PBM binding z-score

>  <Result value>
2.26

$$$$
>  <Input sequence>
CCTAGGAGGACAACAGGAGGTCAGAGCTGCCAGA

>  <System tested>
LXRb homodimer (NR concentration 270 nM)

>  <Measured attribute>
PBM binding z-score

>  <Result value>
-0.406

$$$$
